Where these numbers come from: ChEMBL document CHEMBL1833798

# Measurement Protocol: in vitro
# Test Parameters: human, HCT116 cells
# Description: Cytotoxicity against human HCT116 cells assessed as inhibition of cell proliferation at 50 uM
Property: inhibition at 50 µM

Fill blank: measured inhibition at 50 µM of the compound COc1cc(-c2ccccn2)nc(C#N)c1SC is ____.
7.37%
